TEST_NAME: Cytotoxicity by MTT assay, 96 h, M14
Format: cell-based, human
EXPERIMENTAL_SETUP: human, M14 cells; MTT, 96 hours; read-out: M14 IC50 (cytotoxicity)
PROPERTY_LABEL: IC50 at 96 h

Query: Respond only with IC50 at 96 h recorded for COC(=O)CCNC(=O)C1CC(CCCNc2ncccn2)C1 (stereo not shown)
Result: > 100 µM

---

TESTED_TARGET: αvβ3 (Homo sapiens, UniProt P05106+P06756)
Construct: endogenous in cells; host or cells: SK-Mel-2 melanoma cells
Sequence (P06756 31-889 limits assumed): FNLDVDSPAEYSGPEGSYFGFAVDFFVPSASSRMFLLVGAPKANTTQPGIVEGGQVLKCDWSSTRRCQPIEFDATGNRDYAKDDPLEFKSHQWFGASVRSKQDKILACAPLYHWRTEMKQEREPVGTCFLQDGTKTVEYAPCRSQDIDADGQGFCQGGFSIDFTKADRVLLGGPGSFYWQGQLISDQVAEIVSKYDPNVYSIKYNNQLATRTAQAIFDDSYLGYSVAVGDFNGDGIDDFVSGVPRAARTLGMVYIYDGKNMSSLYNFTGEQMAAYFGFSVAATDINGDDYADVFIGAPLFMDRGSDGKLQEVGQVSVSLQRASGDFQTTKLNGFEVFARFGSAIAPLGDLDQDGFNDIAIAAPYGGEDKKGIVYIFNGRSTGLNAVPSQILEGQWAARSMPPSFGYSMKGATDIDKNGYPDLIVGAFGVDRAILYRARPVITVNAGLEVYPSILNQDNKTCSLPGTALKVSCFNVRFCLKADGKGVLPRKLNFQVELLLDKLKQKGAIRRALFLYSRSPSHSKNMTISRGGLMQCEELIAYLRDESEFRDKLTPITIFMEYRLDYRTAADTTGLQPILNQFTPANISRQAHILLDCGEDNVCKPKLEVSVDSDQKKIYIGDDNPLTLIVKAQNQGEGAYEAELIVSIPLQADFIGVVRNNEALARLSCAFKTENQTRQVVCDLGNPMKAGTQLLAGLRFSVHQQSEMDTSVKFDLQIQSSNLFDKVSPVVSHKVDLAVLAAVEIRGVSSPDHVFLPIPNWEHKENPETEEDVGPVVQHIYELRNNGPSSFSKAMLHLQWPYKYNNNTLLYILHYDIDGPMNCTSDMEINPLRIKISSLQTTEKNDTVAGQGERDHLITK
Sequence (P06756 891-1048 partner limits assumed): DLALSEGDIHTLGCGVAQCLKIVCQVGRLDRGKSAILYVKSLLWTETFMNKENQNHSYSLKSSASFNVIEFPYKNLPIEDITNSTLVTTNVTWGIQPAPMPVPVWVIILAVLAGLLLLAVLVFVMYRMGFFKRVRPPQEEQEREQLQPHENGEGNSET
Sequence (P05106 27-788): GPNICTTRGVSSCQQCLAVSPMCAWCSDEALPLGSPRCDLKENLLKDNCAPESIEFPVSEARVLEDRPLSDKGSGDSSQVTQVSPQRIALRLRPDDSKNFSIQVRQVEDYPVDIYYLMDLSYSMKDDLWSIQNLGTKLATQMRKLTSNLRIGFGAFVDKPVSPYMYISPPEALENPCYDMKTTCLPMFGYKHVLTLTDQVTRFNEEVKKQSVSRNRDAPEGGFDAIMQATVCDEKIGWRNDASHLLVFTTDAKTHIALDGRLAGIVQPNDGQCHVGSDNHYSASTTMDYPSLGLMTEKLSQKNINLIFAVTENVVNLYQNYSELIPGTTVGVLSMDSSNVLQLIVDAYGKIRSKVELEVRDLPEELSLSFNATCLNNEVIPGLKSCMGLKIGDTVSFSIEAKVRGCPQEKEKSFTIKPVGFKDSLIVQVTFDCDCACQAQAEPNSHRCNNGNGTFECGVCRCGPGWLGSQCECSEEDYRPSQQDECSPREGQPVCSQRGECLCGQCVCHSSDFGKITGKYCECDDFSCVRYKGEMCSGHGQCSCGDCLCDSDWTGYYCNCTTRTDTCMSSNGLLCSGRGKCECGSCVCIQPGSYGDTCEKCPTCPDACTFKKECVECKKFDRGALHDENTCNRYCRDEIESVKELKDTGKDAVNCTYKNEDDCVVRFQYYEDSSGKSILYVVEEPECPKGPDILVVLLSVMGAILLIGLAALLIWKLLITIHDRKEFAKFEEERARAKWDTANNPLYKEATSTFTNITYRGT
TEST_NAME: Sk-Mel-2 cell adhesion to immobilised fibronectin (cell-binding assay, MTT readout)
Type: cell-based
EXPERIMENTAL_SETUP: Sk-Mel-2 adhesion to Fn, 50 μM, mean ± SD
Outcome label depends on Adhesion % Inhibition @ 50 μM relative to 70%: at/above gives Met, below gives Not met.

Query: Confirm if Adhesion % Inhibition @ 50 μM reported for the compound COC(=O)[C@H](CNC(=O)[C@H]1C[C@@H](CCCNc2ncccn2)C1)NS(=O)(=O)c1c(C)cc(C)cc1C [ICT9025 28] is 70% or above.
Result: Met

Query: Confirm if Adhesion % Inhibition @ 50 μM reported for the compound COC(=O)[C@H](CNC(=O)C1CC(CCNc2ncccn2)C1)NS(=O)(=O)c1c(C)cc(C)cc1C (stereo partly shown) [ICT9019 21] is 70% or above.
Result: Not met

Query: Confirm if Adhesion % Inhibition @ 50 μM reported for the compound O=C(O)[C@H](CNC(=O)[C@H]1C[C@H](CCCNc2ncccn2)C1)NS(=O)(=O)c1ccccc1 [ICT9028 51] is 70% or above.
Result: Not met

Query: Confirm if Adhesion % Inhibition @ 50 μM reported for the compound COC(=O)[C@H](CNC(=O)C1CC(CCCNc2ncccn2)C1)NS(=O)(=O)c1ccccc1 (stereo partly shown) [ICT9023 23] is 70% or above.
Result: Not met

Query: Confirm if Adhesion % Inhibition @ 50 μM reported for the compound COC(=O)CCNC(=O)[C@H]1C[C@@H](CCc2ccc3c(n2)NCCC3)C1 [ICT9066 47] is 70% or above.
Result: Not met

Query: Confirm if Adhesion % Inhibition @ 50 μM reported for the compound COC(=O)[C@H](CNC(=O)[C@H]1C[C@H](CCNc2ncccn2)C1)NS(=O)(=O)c1c(C)cc(C)cc1C [ICT9024 27] is 70% or above.
Result: Met
